Values from ChEMBL document CHEMBL3045406

Test system: Oryza sativa
Test: Effect on Oryza sativa (rice) assessed as growth rate at 10 uM relative to control
Assay type: organism-based
Settings: in vivo
PROPERTY: Activity (%)

INSERT INTO measurements (compound_smiles, property, units_symbol, experimental_value) VALUES
  ('C[C@@H](NC(=O)Nc1ccccc1Cl)c1ccccc1', 'Activity', '%', 93),
  ('C[C@@H](NC(=O)Nc1cccc(Cl)c1)c1ccccc1', 'Activity', '%', 83),
  ('C[C@H](NC(=O)Nc1ccc(Cl)cc1)c1ccccc1', 'Activity', '%', 101),
  ('CCCCCCCc1ccc(NC(=O)N[C@H](C)c2ccccc2)cc1', 'Activity', '%', 100),
  ('C[C@H](NC(=O)Nc1ccc(F)c(F)c1)c1ccccc1', 'Activity', '%', 98),
  ('C[C@@H](NC(=O)Nc1cccc(F)c1)c1ccccc1', 'Activity', '%', 84),
  ('C[C@@H](NC(=O)Nc1ccc(I)cc1)c1ccccc1', 'Activity', '%', 85),
  ('C[C@H](NC(=O)Nc1cc(C(F)(F)F)cc(C(F)(F)F)c1)c1ccccc1', 'Activity', '%', 86),
  ('CC(C)c1ccc(NC(=O)N[C@@H](C)c2ccccc2)cc1', 'Activity', '%', 86),
  ('CCCCCCc1ccc(NC(=O)N[C@H](C)c2ccccc2)cc1', 'Activity', '%', 101),
  ('C[C@@H](NC(=O)Nc1cccc(Cl)c1Cl)c1ccccc1', 'Activity', '%', 99),
  ('C[C@H](NC(=O)Nc1cccc(F)c1F)c1ccccc1', 'Activity', '%', 100),
  ('C[C@H](NC(=O)Nc1ccc(Cl)cc1Cl)c1ccccc1', 'Activity', '%', 99),
  ('C[C@@H](NC(=O)Nc1cccc(C(F)(F)F)c1F)c1ccccc1', 'Activity', '%', 98),
  ('CCOC(=O)c1ccc(NC(=O)N[C@@H](C)c2ccccc2)cc1', 'Activity', '%', 92),
  ('C[C@@H](NC(=O)Nc1ccc(C(C)(C)C)cc1)c1ccccc1', 'Activity', '%', 53),
  ('C[C@H](NC(=O)Nc1cccc(Cl)c1)c1ccccc1', 'Activity', '%', 103),
  ('C[C@@H](NC(=O)Nc1ccccc1C(C)(C)C)c1ccccc1', 'Activity', '%', 17),
  ('C[C@H](NC(=O)Nc1c(F)cccc1F)c1ccccc1', 'Activity', '%', 99),
  ('CCc1cccc(NC(=O)N[C@@H](C)c2ccccc2)c1', 'Activity', '%', 86),
  ('C[C@H](NC(=O)Nc1ccccc1F)c1ccccc1', 'Activity', '%', 65),
  ('CC(=O)c1ccccc1NC(=O)N[C@H](C)c1ccccc1', 'Activity', '%', 89),
  ('C[C@@H](NC(=O)Nc1cccc(I)c1)c1ccccc1', 'Activity', '%', 73);

###

System: Oryza sativa
Experiment: Effect on Oryza sativa (rice) assessed as growth rate at 10 uM relative to control
Format: organism-based
Conditions: in vivo
// values below are reported Activity
PROPERTY: Activity (%)

INSERT INTO measurements (compound_smiles, experimental_value) VALUES
  ('CC(C)c1ccc(NC(=O)N[C@H](C)c2ccccc2)cc1', 49),
  ('Cc1ccccc1NC(=O)N[C@@H](C)c1ccccc1', 99),
  ('C[C@H](NC(=O)Nc1ccc(Br)cc1)c1ccccc1', 96),
  ('CCOC(=O)c1cccc(NC(=O)N[C@@H](C)c2ccccc2)c1', 96),
  ('C[C@H](NC(=O)Nc1cccc(Cl)c1Cl)c1ccccc1', 101),
  ('Cc1ccc(NC(=O)N[C@H](C)c2ccccc2)c(F)c1', 99);

###

Tested on: Oryza sativa
Assay: Effect on Oryza sativa (rice) assessed as growth rate at 1 uM relative to control
Assay type: organism-based
Conditions: in vivo
PROPERTY: Activity (%)

INSERT INTO results (compound_smiles, property, experimental_value) VALUES
  ('CCOC(=O)c1ccccc1NC(=O)N[C@H](C)c1ccccc1', 'Activity', 100),
  ('C[C@H](NC(=O)Nc1ccc(Cl)cc1)c1ccccc1', 'Activity', 101),
  ('C[C@H](NC(=O)Nc1ccc(F)c(F)c1)c1ccccc1', 'Activity', 100),
  ('C[C@H](NC(=O)Nc1cc(C(F)(F)F)cc(C(F)(F)F)c1)c1ccccc1', 'Activity', 95),
  ('Cc1ccc(NC(=O)N[C@@H](C)c2ccccc2)c(F)c1', 'Activity', 99),
  ('CCc1ccc(NC(=O)N[C@@H](C)c2ccccc2)cc1', 'Activity', 95),
  ('CCCc1ccc(NC(=O)N[C@H](C)c2ccccc2)cc1', 'Activity', 31),
  ('C[C@H](NC(=O)Nc1ccccc1F)c1ccccc1', 'Activity', 92),
  ('C[C@H](NC(=O)Nc1cccc(Br)c1)c1ccccc1', 'Activity', 100),
  ('CC(C)c1ccc(NC(=O)N[C@@H](C)c2ccccc2)cc1', 'Activity', 96),
  ('CC(=O)c1ccc(NC(=O)N[C@H](C)c2ccccc2)cc1', 'Activity', 93),
  ('C[C@H](NC(=O)Nc1ccccc1)c1ccccc1', 'Activity', 98);

###

System: Oryza sativa
Assay: Relieving activity against bensulfuron-methyl induced injury to Oryza sativa (rice) assessed as growth rate at 1 uM (Rbv = 46 to 53%)
Type: functional
PROPERTY: Activity

INSERT INTO assay_data (compound_smiles, target_entity, property, experimental_value) VALUES
  ('Cc1cc(F)ccc1NC(=O)N[C@@H](C)c1ccccc1', 'Oryza sativa', 'Activity', '71%'),
  ('CCCc1ccc(NC(=O)N[C@@H](C)c2ccccc2)cc1', 'Oryza sativa', 'Activity', '68%'),
  ('C[C@@H](NC(=O)Nc1ccccc1)c1ccccc1', 'Oryza sativa', 'Activity', '69%'),
  ('COc1ccccc1NC(=O)N[C@@H](C)c1ccccc1', 'Oryza sativa', 'Activity', '68%'),
  ('C[C@@H](NC(=O)Nc1ccccc1I)c1ccccc1', 'Oryza sativa', 'Activity', '68%');

###

Test system: Oryza sativa
Assay: Effect on Oryza sativa (rice) assessed as growth rate at 0.1 uM relative to control
Type: organism-based
Settings: in vivo
PROPERTY: Activity

INSERT INTO assay_data (compound_smiles, experimental_value) VALUES
  ('Cc1ccccc1NC(=O)N[C@H](C)c1ccccc1', '100%'),
  ('COc1ccccc1NC(=O)N[C@H](C)c1ccccc1', '100%'),
  ('C[C@H](NC(=O)Nc1cccc(I)c1)c1ccccc1', '98%'),
  ('COc1ccc(NC(=O)N[C@@H](C)c2ccccc2)cc1', '104%'),
  ('C[C@@H](NC(=O)Nc1ccccc1F)c1ccccc1', '97%');

###

Tested on: Oryza sativa
Assay: Effect on Oryza sativa (rice) assessed as growth rate at 10 uM relative to control
Assay type: organism-based
Conditions: in vivo
This listing pairs molecules with measured Activity.
PROPERTY: Activity

INSERT INTO measurements (compound_smiles, target_entity, experimental_value) VALUES
  ('C[C@H](NC(=O)Nc1cccc(F)c1)c1ccccc1', 'Oryza sativa', '88%'),
  ('CCc1cccc(NC(=O)N[C@H](C)c2ccccc2)c1', 'Oryza sativa', '36%'),
  ('C[C@@H](NC(=O)Nc1cc(F)ccc1F)c1ccccc1', 'Oryza sativa', '92%'),
  ('Cc1ccc(NC(=O)NC(C)(C)c2ccccc2)cc1', 'Oryza sativa', '77%'),
  ('C[C@H](NC(=O)Nc1cc(Cl)cc(Cl)c1)c1ccccc1', 'Oryza sativa', '99%'),
  ('C[C@@H](NC(=O)Nc1c(Cl)cccc1Cl)c1ccccc1', 'Oryza sativa', '100%');

###

System: Oryza sativa
Assay: Effect on Oryza sativa (rice) assessed as growth rate at 10 uM relative to control
Type: organism-based
Details: in vivo
PROPERTY: Activity (%)

INSERT INTO assay_data (compound_smiles, units_symbol, experimental_value) VALUES
  ('CCc1cccc(CC)c1NC(=O)N[C@H](C)c1ccccc1', '%', 99),
  ('CCCCCCCc1ccc(NC(=O)N[C@@H](C)c2ccccc2)cc1', '%', 99),
  ('CCc1ccc(NC(=O)N[C@H](C)c2ccccc2)cc1', '%', 44),
  ('C[C@H](NC(=O)Nc1ccc(F)cc1)c1ccccc1', '%', 85),
  ('CCOC(=O)c1ccccc1NC(=O)N[C@H](C)c1ccccc1', '%', 100),
  ('CCCCCCc1ccc(NC(=O)N[C@@H](C)c2ccccc2)cc1', '%', 99),
  ('COc1cccc(NC(=O)N[C@H](C)c2ccccc2)c1', '%', 70),
  ('Cc1cccc(NC(=O)N[C@H](C)c2ccccc2)c1', '%', 47),
  ('Cc1cccc(NC(=O)N[C@@H](C)c2ccccc2)c1', '%', 100),
  ('CC(=O)c1ccc(NC(=O)N[C@@H](C)c2ccccc2)cc1', '%', 96);
